Data provenance is the supplement of paper PMC6555819.

System: LXRb homodimer (NR concentration 270 nM)
Assay: PBM binding z-score (relative to random genomic background probes); higher = stronger binding; sequences stand for … in GC…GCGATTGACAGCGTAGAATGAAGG
reported.endpoint: PBM binding z-score
Note: the reply should be a number with no unit written.

{"entry.sequence": "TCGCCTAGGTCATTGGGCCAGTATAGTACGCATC", "PBM binding z-score": -0.239}
{"entry.sequence": "ATCTCTAGGTAAAGCTCAGTGAAAGATCGATAGA", "PBM binding z-score": 0.358}
{"entry.sequence": "ACTAGCACGCCAAGGGTCACTCAAGATTAGTCCG", "PBM binding z-score": -0.324}
{"entry.sequence": "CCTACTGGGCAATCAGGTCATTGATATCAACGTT", "PBM binding z-score": -0.496}

Reported PBM binding z-score, sequence `CTCGAAAGGTCGGTTGAGTTGAGTATACGGATAA` : ____ -0.0298

Reported PBM binding z-score for `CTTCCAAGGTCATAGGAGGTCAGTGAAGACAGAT` : what is it? 1.51

###

System: LXRb homodimer (NR concentration 270 nM)
Test: PBM binding z-score (relative to random genomic background probes); higher = stronger binding; sequences stand for … in GC…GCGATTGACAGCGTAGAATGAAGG
Returns rule met if the recorded PBM binding z-score is greater than or equal to -0.05, and rule not met otherwise.

Please review the entries below; each comes with its answer.
{"entry.sequence": "CGTCCAAGGCCAATGCTAGGTCAGTGAAAGCATT", "class.label": "rule not met"}
{"entry.sequence": "ATATGTAAGTTAAGGGTCATTCAGGTTGGTTCGC", "class.label": "rule met"}
{"entry.sequence": "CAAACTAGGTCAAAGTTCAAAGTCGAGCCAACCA", "class.label": "rule met"}

Can `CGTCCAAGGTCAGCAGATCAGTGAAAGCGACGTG` be said to have PBM binding z-score at or above -0.05? rule not met

Decide: is the reported value of PBM binding z-score for `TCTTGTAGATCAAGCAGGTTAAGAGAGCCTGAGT` equal to or greater than -0.05? rule not met

Is reported PBM binding z-score greater than or equal to -0.05 here: `ATATGTAGGTTACATCCGGGCCATTCAGGCTATG` rule met

Assess whether reported PBM binding z-score for `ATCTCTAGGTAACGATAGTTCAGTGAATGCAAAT` sits at -0.05 or higher. rule met

Please indicate if the recorded PBM binding z-score for `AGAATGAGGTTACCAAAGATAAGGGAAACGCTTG` meets or exceeds -0.05. rule not met

Assess whether reported PBM binding z-score for `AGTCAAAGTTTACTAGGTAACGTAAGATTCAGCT` sits at -0.05 or higher. rule met

Could you verify whether the entry `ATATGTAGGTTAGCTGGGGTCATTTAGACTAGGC` shows PBM binding z-score of no less than -0.05? rule met

Hello, I need to know if `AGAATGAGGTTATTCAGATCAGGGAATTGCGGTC` has measured PBM binding z-score not below -0.05. Thanks! rule met

Form field: PBM binding z-score at least -0.05? Entry: `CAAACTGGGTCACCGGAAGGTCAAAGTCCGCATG` rule met

Is reported PBM binding z-score greater than or equal to -0.05 here: `CAAACTAGGTAACAGAGGTCAAAGTCCGTGCGTA` rule met

Decide: PBM binding z-score of `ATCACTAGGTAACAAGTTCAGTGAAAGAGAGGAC` >= -0.05? rule met

Quick check: does `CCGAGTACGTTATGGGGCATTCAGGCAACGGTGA` have PBM binding z-score greater than or equal to -0.05? rule not met

Given the entry `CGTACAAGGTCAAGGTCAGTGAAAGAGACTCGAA` , answer whether its PBM binding z-score meets or surpasses -0.05. rule met

Hi team, for `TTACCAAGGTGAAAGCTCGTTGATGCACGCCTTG` , is the recorded PBM binding z-score at or above -0.05? rule not met

Can `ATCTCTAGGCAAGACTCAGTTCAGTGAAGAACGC` be said to have PBM binding z-score at or above -0.05? rule not met
